- target: Genome polyprotein (dengue virus type 2, UniProt P29990)
- method.notes: Inhibition of full length DENV2 NS2B-NS3 protease in human HeLa cells expressing luciferase reporter gene incubated for 24 hrs by luminescence analysis
# pEC50 listing for each entry below
Field pEC50 (float): negative decimal logarithm of the concentration in molar.

Please review the following examples before continuing.
# compound, target, pEC50
measured = [
    ("CC(C(=O)Nc1ccc2c(c1)B(O)OC2)c1cccc(Oc2ccccc2)c1 (stereo not drawn)", "Genome polyprotein (dengue virus type 2, UniProt P29990)", 5.51),
    ("CCCCCC(=O)Nc1ccc2c(c1)B(O)OC2", "Genome polyprotein (dengue virus type 2, UniProt P29990)", 4.72),
    ("O=C(Nc1ccc2c(c1)B(O)OC2)c1cccc(OCc2ccccc2)c1", "Genome polyprotein (dengue virus type 2, UniProt P29990)", 5.62),
    ("O=C(Nc1ccc2c(c1)B(O)OC2)c1cccc(Oc2ccccc2)c1", "Genome polyprotein (dengue virus type 2, UniProt P29990)", 5.19),
    ("O=C(Nc1ccccc1)Nc1ccc2c(c1)B(O)OC2", "Genome polyprotein (dengue virus type 2, UniProt P29990)", 4.65),
]

# input Need pEC50 of O=C(Nc1cccc(C(=O)Nc2ccc3c(c2)B(O)OC3)c1)c1ccccc1 , thanks.
# output 4.88

# input Now try O=C(Nc1ccc2c(c1)B(O)OC2)c1ccccc1OCc1ccccc1 .
# output 5.21

# input Likewise for O=C(Nc1ccc2c(c1)B(O)OC2)c1ccc(OCc2ccc(Cl)cc2)cc1 ?
# output 4.84

# input How about this compound: COc1cccc(C(=O)Nc2ccc3c(c2)B(O)OC3)c1
# output 5.19

# input Further, for O=C(Nc1ccc2c(c1)B(O)OC2)c1ccc(OCc2ccccc2)cc1 ?
# output 5.06

# input # iterate: O=C(Nc1ccc2c(c1)B(O)OC2)c1cccc(NCc2ccccc2)c1
# output 5.28

# input Field entry: O=C(NCc1ccc(B(O)O)cc1)c1cccc(OCc2ccccc2)c1
# output 4.85

# input And the next one, O=C(Nc1ccc2c(c1)B(O)OC2)c1ccc(N2CCOCC2)cc1 ?
# output 4.77

###

- target: Replicase polyprotein 1ab (Severe acute respiratory syndrome coronavirus 2) (UniProt P0DTD1)
- method.notes: Inhibition of C-terminal His tagged SARS CoV-2 main protease transfected in Escherichia coli BL21 (DE3) using 2-Abz-Ser-AlaVal-Leu-Gln-Ser-Gly-Tyr(3-NO2)-Arg-OH as substrate at 50 uM preincubated for 15 mins followed by substrate addition and measured after 15 mins by FRET assay relative to control
- condition.info: time 30.0 min
quantity: inhibition (%)
A number alone suffices; assume %.

# compound, inhibition (%)
data = [
    ("O=C(Nc1ccc2c(c1)B(O)OC2)c1cccc(OCc2ccccc2)n1", 99.6),
]

# input Look up inhibition for this compound: CC(C(=O)Nc1ccc2c(c1)B(O)OC2)c1cccc(Oc2ccccc2)c1 (configuration not stated)
# output 19

# input Further, for N#Cc1ccc(COc2cccc(C(=O)Nc3ccc4c(c3)B(O)OC4)c2)cc1 ?
# output 43.4

# input And the next one, Nc1ccc2c(c1)B(O)OC2 ?
# output 17.5

# input And O=C(Nc1cccc(C(=O)Nc2ccc3c(c2)B(O)OC3)c1)c1ccccc1 ?
# output 45.6

# input Here is the next compound: O=C(Oc1cncc(Cl)c1)c1cccs1
# output 95

# input Another compound: COc1cccc(COc2cccc(C(=O)Nc3ccc4c(c3)B(O)OC4)c2)c1
# output 45.7

# input Record: O=C(Nc1ccc2c(c1)B(O)OC2)c1ccccc1OCc1ccccc1
# output 40.6
